- SUBJECT_OF_TEST: canine CD3 on canine T cells (canine PBMC) (canine, UniProt P27597 22-202)
- Sequence (P27597 22-202 limits assumed, chain 1 of 3): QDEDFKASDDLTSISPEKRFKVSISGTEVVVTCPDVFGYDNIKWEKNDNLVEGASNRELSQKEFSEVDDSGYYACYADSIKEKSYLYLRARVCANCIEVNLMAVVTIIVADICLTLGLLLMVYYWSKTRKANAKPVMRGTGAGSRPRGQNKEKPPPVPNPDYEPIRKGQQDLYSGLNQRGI
- Sequence (chain, as listed by the source limits assumed, chain 2 of 3): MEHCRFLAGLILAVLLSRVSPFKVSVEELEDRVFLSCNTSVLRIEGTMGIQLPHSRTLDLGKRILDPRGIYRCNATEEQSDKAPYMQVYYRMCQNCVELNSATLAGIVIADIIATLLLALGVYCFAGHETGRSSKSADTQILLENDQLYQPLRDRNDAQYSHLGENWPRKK
- Sequence (chain, as listed by the source limits assumed, chain 3 of 3): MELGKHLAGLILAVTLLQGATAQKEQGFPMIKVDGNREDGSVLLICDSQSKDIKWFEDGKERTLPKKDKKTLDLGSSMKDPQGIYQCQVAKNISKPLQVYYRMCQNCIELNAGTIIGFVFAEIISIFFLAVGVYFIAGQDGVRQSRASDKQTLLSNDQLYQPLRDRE
- PROTOCOL_DESCRIPTION: cell-based or functional assay
The following binders are shown together with reported Ki67 Proliferation, Day 6, PB values.
Output: the number by itself.

BINDER	Ki67 Proliferation, Day 6, PB
PMX179 (monospecific anti-canine CD3, canine IgG-B effector function deficient Fc) (antibody, V domains shown) VH: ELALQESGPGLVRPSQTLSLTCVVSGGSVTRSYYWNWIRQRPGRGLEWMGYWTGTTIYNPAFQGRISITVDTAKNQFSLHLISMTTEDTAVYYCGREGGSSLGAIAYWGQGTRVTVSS VL: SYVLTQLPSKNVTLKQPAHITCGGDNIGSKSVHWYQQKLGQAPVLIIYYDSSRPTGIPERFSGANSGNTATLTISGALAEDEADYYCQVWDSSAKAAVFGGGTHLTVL	0.48

Ki67 Proliferation, Day 6, PB measured on PMX168 (monospecific anti-canine CD3, canine IgG-B effector function deficient Fc) (antibody, V domains shown) VH: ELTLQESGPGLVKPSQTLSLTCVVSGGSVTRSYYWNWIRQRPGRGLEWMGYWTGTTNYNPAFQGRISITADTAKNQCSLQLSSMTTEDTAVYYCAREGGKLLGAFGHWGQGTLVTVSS VL: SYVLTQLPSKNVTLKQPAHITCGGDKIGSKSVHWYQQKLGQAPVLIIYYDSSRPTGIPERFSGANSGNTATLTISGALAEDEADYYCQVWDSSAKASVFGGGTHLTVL = 0.15

Field Ki67 Proliferation, Day 6, PB (entry PMX181 (monospecific anti-canine CD3, canine IgG-B effector function deficient Fc) (antibody, V domains shown) VH: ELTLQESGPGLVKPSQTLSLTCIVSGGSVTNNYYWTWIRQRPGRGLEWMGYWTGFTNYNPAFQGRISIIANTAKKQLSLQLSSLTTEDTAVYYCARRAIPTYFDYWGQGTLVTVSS VL: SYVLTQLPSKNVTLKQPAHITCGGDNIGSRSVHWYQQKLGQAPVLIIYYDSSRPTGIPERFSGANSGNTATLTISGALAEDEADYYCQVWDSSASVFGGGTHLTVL ) reads 0.55

Reported Ki67 Proliferation, Day 6, PB of PMX196 (monospecific anti-canine CD3, canine IgG-B effector function deficient Fc) (antibody, V domains shown) VH: ELTLQESGPGLVKPSQTLSLTCVVSGGSVTSSYYWNWIRQRPGRGLEWMGYWTGSTIYNPAFQGRISITADTAKNQFSLQLSSMTTEDTAVYFCVRERRMAFGSWGQGTLVIVSS VL: SYVLTQLPSKSVTLKQPAHITCGGDNIGRKSVHWYQQKLGQAPVLIISFDNNRPTGIPERFSGANSGNTATLTISGALAEDEADYYCQVWDSSAKASVFGGGTHLTVL : 1.41

The binder identified as PMX198 (monospecific anti-canine CD3, canine IgG-B effector function deficient Fc) (antibody, V domains shown) VH: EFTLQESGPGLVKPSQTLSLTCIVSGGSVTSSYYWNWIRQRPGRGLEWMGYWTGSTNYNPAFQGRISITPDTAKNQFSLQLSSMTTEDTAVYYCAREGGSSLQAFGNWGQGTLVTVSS VL: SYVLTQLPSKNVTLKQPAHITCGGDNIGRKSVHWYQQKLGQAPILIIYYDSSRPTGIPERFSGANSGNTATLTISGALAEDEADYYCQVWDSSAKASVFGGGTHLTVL registered its Ki67 Proliferation, Day 6, PB at 0.61

For record PMX197 (monospecific anti-canine CD3, canine IgG-B effector function deficient Fc) (antibody, V domains shown) VH: ELTLQESGPGLVKPSQTLSLTCLVSGGSVTRSYYWNWIRQRPGRGLEWMGYWTGSTNYNPAFQGRISIIPDTAKNQFSLQLTSMTTDDTAIYFCAREGGRTLGAFADWGQGTLVTVSS VL: SYVLTQLPSKNVTLKQPAHITCGGDKIGSKNVHWYQQKLGQAPVLIIYYDSSRPTGIPERFSGANSGNTATLTISGALAEDEADYYCQVWDSSAKASVFGGGTHLTVL the listed Ki67 Proliferation, Day 6, PB is 0.67

Form field Ki67 Proliferation, Day 6, PB, entry PMX177 (monospecific anti-canine CD3, canine IgG-B effector function deficient Fc) (antibody, V domains shown) VH: EVTLQESGPGLVKPSQTLSLTCVVSGGSVTSSFYWNWIRQRPGRGLEWMGYWTGSTNYNPAFQGRISITADTAKNQFSLHLGSMTTDDTAMYYCAREEGSWGRVYFDYWGQGTLVTVSS VL: SYVLTQLPSKNVTLKQPAHITCGGDNIGSKSVHWYQQKLGQAPVLIIYYDSSRPTGIPERFSGANSGNTATLTISGALAEDEADYYCQVWDSSTKTWVFGEGTQLTVL : 1.37

Recorded Ki67 Proliferation, Day 6, PB (binder PMX180 (monospecific anti-canine CD3, canine IgG-B effector function deficient Fc) (antibody, V domains shown) VH: ELTLQESGPGLVKPSQTLSLTCVVSGGSVTSNYYWNWIRQRPGRGLEWMGYWTGSTNYNPAFQGRISITADTAKKQFSLQLRSMTIEDTAVYYCARRGIPIFFDYWGQGTLVTVSS VL: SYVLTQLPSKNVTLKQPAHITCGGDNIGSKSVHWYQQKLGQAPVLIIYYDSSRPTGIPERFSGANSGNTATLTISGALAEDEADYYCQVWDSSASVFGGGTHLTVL ): 0.21

Lab note: PMX193 (monospecific anti-canine CD3, canine IgG-B effector function deficient Fc) (antibody, V domains shown) VH: EVQLVESGGDLVKPGGSLRLSCVASGFTFSTYHMSWVRQAPGKGLQWVAYISSGGSRTNYADAVKGRFTISRDNAKNTLYLQMNSLRAEDAAVFYCARHYGSSLFDYWGQGTLVTVSS VL: DIVMTQTPLSLSVSPGEPASISCKASQSLLHINGNTYLYWFRQKPGQSPQRLIYKVSNRDPGVPDRFSGSGSGTDFTLRISRVEADDAGVYYCGQGIQDPTFGKGTHLEIK gave Ki67 Proliferation, Day 6, PB of 0.11

Data point: PMX159 (monospecific anti-canine CD3, canine IgG-B effector function deficient Fc) (antibody, V domains shown) VH: ELTLQESGPGLVKPSQTLSLTCVVSGGSVTRSYYWNWIRQRPGRGLEWMGYWTGSTIYNPTFQGRISITADTAKSQFSLQLRSMTTEDTAMYFCAREGGKSLGAFAYWGQGTLVTVSS VL: SYVLTQLPSKNVTLKQPAHITCGGDKIGSKNVHWYQQKLGQAPVMIIYYDSSRPTGIPERFSGANSGNTATLTISGALAEDEADYYCQVWDSSAKAAVFGGGTHLTVL ; Ki67 Proliferation, Day 6, PB = 0.37
